Each recorded value in this set is attributed to the RNAGym collection of RNA variant scans (doi:10.1093/nar/gkz1192).

B1: CPEB3 Ribozyme (parent)
chain: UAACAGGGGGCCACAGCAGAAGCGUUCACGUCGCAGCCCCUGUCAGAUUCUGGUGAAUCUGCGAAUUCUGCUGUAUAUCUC

# Variants of: B1
# measurement.description: self-cleavage, relative activity (ratio to wild type); higher = more cleavage; in vitro, sequencing
Recorded self-cleavage, one value per entry.
Keep the answer to the number alone.

Form field self-cleavage, entry U41A U67A : 0.36

Value of measured self-cleavage for the entry C29U A77U : 0.49

// sample G33U U80A , its self-cleavage was 0.25

Record U25A U51C . Reported self-cleavage: 0.23

Per the records, this variant ( A13G C39U ) has self-cleavage equal to 1

self-cleavage reading for C23U U67G : 0.38

self-cleavage recorded for this variant, U25C U49A , is 0.3

The recorded self-cleavage for entry U26A C79U equals 1.05

Measured self-cleavage, A3C A64G : 1.17

For this variant ( G8U U49C ), measured self-cleavage is 0.22

Next:
self-cleavage reading for C11U C40U : 0.27

Record C14A U43A , field self-cleavage: 1.24

The variant listed as A3U U25C shows self-cleavage equal to 0.34

For record G63U A75G the listed self-cleavage is 1.14

// C12U U60C : self-cleavage value = 0.95

self-cleavage reported for this variant C62U G73A : 0.16

Per the records, this variant ( C12G U67A ) has self-cleavage equal to 0.23

variant C40U C50A , self-cleavage observed: 0.46

For reference, reported self-cleavage for A21G C32U stands at 0.22
